assay: Half life in mouse at 10 mg/kg, po; assay type: ADME, organism-based; set-up: dose 10 mg/kg, route oral; conditions: in vivo
readout-kind: half-life (h)
API: value field is a number in h; no unit string.

Inquiry: For "CONC(=O)c1cn(-c2ccc3c(c2)CCC3)c2nc(Nc3ccc(C4CCN(C)CC4)cc3)ncc2c1=O" , what is its reported half-life?
Reply text: 4

---

assay: Plasma concentration in Freund's complete adjuvant-induced Lewis rat arthritis model at 1 mg/kg, po twice daily administered on day 8 post adjuvant challenge measured 7 days after last dose; type: ADME, organism-based; set-up: dose 1 mg/kg, route oral
readout-kind: concentration at 168 h (nM)
Kindly answer with a numeric value in nM, unit omitted.

Inquiry: Requested field: concentration at 168 h. Item: "CONC(=O)c1cn(-c2ccc3c(c2)CCC3)c2nc(Nc3ccc(C4CCN(C)CC4)cc3)ncc2c1=O"
Reply text: 55

---

experiment: Metabolic stability in monkey liver microsomes after 10 mins; type: ADME, Macaca mulatta, Microsome; conditions: rhesus monkey, read-out: Stability
readout-kind: remaining at 10 min (%)
Number only, in %; omit the unit.

Inquiry: Value lookup for remaining at 10 min; key = "CONC(=O)c1cn(-c2ccc3c(c2)CCC3)c2nc(Nc3ccc(C4CCN(C)CC4)cc3)ncc2c1=O"
Reply text: 14

---

Documented remaining at 10 min across a set of compounds
experiment: Metabolic stability in rat liver microsomes after 10 mins; assay type: ADME, Microsome; settings: read-out: Stability
Kindly format the answer as number then unit.

The following compounds have reported results that may help.
- compound: "CCN1CCCC(O)(c2cccc(Nc3ncc4c(=O)c(C(=O)NOC)cn(-c5ccc6c(c5)CCC6)c4n3)c2)C1 (configuration not stated)"
  remaining at 10 min: "89%"
- compound: "CONC(=O)c1cn(-c2ccc3c(c2)CCC3)c2nc(Nc3ccc(C4CCN(CC(=O)O)CC4)cc3)ncc2c1=O"
  remaining at 10 min: "99%"
- compound: "CONC(=O)c1cn(-c2ccc3c(c2)CCC3)c2nc(Nc3ccc(C4CCN(C)CC4(F)F)cc3)ncc2c1=O (configuration not stated)"
  remaining at 10 min: "44%"

Inquiry: For the compound "CONC(=O)c1cn(C2CCCCC2)c2nc(Nc3ccc(C4CCN(C)CC4)cc3)ncc2c1=O" , what remaining at 10 min is on record?
Reply text: 68%

Inquiry: Sample "CN1CCN(CCc2ccc(Nc3ncc4c(=O)c(C(=O)NCCO)cn(-c5ccc6c(c5)CCC6)c4n3)cc2)CC1" — what was its remaining at 10 min?
Reply text: 84%

Inquiry: Name the reported remaining at 10 min value associated with the compound "CCONC(=O)c1cn(-c2ccc3c(c2)CCC3)c2nc(Nc3ccc(CCN4CCN(C)CC4)cc3)ncc2c1=O"
Reply text: 84%

Inquiry: For "CONC(=O)c1cn(-c2ccc3c(c2)CCC3)c2nc(Nc3ccc(C4CCNCC4)cc3)ncc2c1=O" , what is its reported remaining at 10 min?
Reply text: 93%

Inquiry: # query: remaining at 10 min of entry "CN1CCN(CCc2ccc(Nc3ncc4c(=O)c(C(N)=O)cn(-c5ccc6c(c5)CCC6)c4n3)cc2)CC1"
Reply text: 96%

---

biological target: Insulin receptor (Homo sapiens, UniProt P06213)
Sequence (P06213 28-758 limits assumed): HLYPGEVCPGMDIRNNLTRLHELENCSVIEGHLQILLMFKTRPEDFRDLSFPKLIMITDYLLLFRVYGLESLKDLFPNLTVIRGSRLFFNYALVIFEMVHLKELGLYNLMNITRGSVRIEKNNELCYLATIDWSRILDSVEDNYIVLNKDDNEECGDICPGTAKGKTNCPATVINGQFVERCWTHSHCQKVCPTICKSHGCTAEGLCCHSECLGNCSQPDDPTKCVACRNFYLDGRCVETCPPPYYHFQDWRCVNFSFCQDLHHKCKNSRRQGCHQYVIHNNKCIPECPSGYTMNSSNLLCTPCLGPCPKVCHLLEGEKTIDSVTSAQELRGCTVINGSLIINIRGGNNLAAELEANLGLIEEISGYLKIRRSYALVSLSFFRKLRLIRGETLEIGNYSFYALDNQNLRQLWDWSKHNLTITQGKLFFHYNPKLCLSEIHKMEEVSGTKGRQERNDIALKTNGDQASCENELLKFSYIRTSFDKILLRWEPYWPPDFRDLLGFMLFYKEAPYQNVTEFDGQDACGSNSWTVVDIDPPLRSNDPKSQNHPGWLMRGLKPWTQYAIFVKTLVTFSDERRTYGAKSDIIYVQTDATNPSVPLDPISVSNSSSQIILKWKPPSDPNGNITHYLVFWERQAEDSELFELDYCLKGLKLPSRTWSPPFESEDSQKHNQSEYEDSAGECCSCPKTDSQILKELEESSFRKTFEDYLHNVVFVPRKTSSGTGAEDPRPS
Sequence (P06213 763-1382 limits assumed): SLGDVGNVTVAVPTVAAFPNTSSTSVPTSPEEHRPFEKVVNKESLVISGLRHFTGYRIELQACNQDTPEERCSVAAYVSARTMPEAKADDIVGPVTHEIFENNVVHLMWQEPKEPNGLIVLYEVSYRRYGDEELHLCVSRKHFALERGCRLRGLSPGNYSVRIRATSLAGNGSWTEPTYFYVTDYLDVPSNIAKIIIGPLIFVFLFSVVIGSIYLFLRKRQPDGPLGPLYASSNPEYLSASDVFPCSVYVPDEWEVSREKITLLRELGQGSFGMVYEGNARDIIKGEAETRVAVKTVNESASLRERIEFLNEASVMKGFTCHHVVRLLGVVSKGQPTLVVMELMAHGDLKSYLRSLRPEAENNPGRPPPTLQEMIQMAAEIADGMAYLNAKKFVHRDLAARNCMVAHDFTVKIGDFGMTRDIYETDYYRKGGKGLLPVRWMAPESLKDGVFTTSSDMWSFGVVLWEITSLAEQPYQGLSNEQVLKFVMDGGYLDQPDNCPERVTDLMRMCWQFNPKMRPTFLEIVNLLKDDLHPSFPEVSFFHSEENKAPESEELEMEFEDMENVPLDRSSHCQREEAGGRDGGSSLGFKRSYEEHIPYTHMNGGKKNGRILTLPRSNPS
readout-kind: pIC50
Please note pIC50 is a logarithmic value: minus log10 of concentration in mol/L. Answer with that number alone.

Inquiry: Lookup: pIC50 / Insulin receptor (Homo sapiens, UniProt P06213) / "CONC(=O)c1cn(-c2ccc3c(c2)CCC3)c2nc(Nc3ccc(C4CCN(C)CC4)cc3)ncc2c1=O"
Reply text: 5.43

---

assay: Cmax in Sprague-Dawley rat at 10 mg/kg, po; assay type: ADME, organism-based; parameters: dose 10 mg/kg, route oral; conditions: in vivo
readout-kind: Cmax (nM)
All answers are understood in nM, so give the number only.

The cases that follow already have their Cmax on record.
- compound: "CCN1CCCC(O)(c2cccc(Nc3ncc4c(=O)c(C(=O)NOC)cn(-c5ccc6c(c5)CCC6)c4n3)c2)C1 (centres undefined)"
  readout-kind: "Cmax"
  value-reported: 400
- compound: "CONC(=O)c1cn(-c2ccc3c(c2)CCC3)c2nc(Nc3ccc(CCN4CCNC(=O)C4)cc3)ncc2c1=O"
  readout-kind: "Cmax"
  value-reported: 80
- compound: "CNC(=O)c1cn(-c2ccc3c(c2)CCC3)c2nc(Nc3ccc(CCN4CCOCC4)cc3)ncc2c1=O"
  readout-kind: "Cmax"
  value-reported: 130

Now look at this entry.
Inquiry: Request the reported Cmax associated with "CONC(=O)c1cn(-c2ccc3c(c2)CCC3)c2nc(Nc3ccc(CCN4CCN(C)CC4)cc3)ncc2c1=O"
Reply text: 2700

---

test: Plasma concentration CSF1-induced B6C3F1 mouse at 3 mg/kg, po after 6 hrs; format: ADME, organism-based; set-up: dose 3 mg/kg, route oral
readout-kind: concentration at 6 h (nM)
Answer format: numeric, nM implied, no suffix.

Inquiry: For the compound "CONC(=O)c1cn(-c2ccc3c(c2)CCC3)c2nc(Nc3ccc(C4CCN(C)CC4)cc3)ncc2c1=O" , what concentration at 6 h is on record?
Reply text: 290

---

experiment: Cmax in monkey at 10 mg/kg, po; format: ADME, organism-based, Macaca mulatta; set-up: dose 10 mg/kg, route oral; settings: rhesus monkey, in vivo
readout-kind: Cmax (nM)
Output spec: scalar in nM, unitless text.

Inquiry: For "CONC(=O)c1cn(-c2ccc3c(c2)CCC3)c2nc(Nc3ccc(C4CCN(C)CC4)cc3)ncc2c1=O" , what is its reported Cmax?
Reply text: 60

---

assay: Cmax in mouse at 10 mg/kg, po; type: ADME, organism-based; design: dose 10 mg/kg, route oral; conditions: in vivo
readout-kind: Cmax (nM)
Please give a number only; it is taken to be in nM.

Inquiry: Entry "CONC(=O)c1cn(-c2ccc3c(c2)CCC3)c2nc(Nc3ccc(C4CCN(C)CC4)cc3)ncc2c1=O" : reported Cmax = ?
Reply text: 1600

---

biological target: UniProt:P07333
Sequence (P07333 whole entry): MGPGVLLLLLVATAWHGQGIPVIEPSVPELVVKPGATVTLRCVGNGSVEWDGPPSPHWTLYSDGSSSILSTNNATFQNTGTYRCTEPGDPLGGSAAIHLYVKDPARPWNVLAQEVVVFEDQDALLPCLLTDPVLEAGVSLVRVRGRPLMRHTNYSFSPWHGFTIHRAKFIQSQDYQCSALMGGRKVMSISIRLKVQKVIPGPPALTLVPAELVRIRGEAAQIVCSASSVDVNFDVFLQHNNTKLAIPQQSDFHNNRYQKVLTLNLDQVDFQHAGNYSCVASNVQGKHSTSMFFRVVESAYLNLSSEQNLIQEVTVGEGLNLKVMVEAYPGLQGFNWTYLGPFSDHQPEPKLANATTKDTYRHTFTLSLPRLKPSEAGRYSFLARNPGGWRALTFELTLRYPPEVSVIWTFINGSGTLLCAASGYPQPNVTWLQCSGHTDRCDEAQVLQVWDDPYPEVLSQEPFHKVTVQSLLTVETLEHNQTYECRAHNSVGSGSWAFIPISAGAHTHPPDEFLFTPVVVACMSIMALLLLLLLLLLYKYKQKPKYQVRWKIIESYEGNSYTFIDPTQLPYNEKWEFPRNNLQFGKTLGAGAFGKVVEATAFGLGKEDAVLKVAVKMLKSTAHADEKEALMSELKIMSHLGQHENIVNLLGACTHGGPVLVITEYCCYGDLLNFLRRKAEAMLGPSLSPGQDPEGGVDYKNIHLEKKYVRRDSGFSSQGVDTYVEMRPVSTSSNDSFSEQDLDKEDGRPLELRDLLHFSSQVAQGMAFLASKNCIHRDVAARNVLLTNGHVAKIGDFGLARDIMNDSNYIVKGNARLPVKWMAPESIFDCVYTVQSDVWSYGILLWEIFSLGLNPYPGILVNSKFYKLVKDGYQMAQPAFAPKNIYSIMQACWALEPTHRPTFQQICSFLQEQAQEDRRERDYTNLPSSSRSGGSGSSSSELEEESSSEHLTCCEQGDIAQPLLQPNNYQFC
pIC50 for assorted compounds
# reply with the number alone; pIC50 is -log10 of concentration in mol/L

Solved entries:
- compound: "CONC(=O)c1cn(-c2ccc3c(c2)CCC3)c2nc(Nc3ccc(C4CCN(C)CC4(F)F)cc3)ncc2c1=O (stereo unspecified)"
  pIC50: 9.15
- compound: "CONC(=O)c1cn(-c2ccc3c(c2)CCC3)c2nc(NCc3ccccc3)ncc2c1=O"
  pIC50: 7.12
- compound: "CCCCNc1ncc2c(=O)c(C(=O)NOC)cn(-c3ccc4c(c3)CCC4)c2n1"
  pIC50: 7.82

Continue with the next compound.
Inquiry: Which measured pIC50 value corresponds to "CNC(=O)c1cn(-c2ccc3c(c2)CCC3)c2nc(Nc3ccc(CCN4CCOCC4)cc3)ncc2c1=O" ?
Reply text: 8.85

---

molecular target: Receptor-type tyrosine-protein kinase FLT3 (Homo sapiens, UniProt P36888)
Sequence (P36888 whole entry): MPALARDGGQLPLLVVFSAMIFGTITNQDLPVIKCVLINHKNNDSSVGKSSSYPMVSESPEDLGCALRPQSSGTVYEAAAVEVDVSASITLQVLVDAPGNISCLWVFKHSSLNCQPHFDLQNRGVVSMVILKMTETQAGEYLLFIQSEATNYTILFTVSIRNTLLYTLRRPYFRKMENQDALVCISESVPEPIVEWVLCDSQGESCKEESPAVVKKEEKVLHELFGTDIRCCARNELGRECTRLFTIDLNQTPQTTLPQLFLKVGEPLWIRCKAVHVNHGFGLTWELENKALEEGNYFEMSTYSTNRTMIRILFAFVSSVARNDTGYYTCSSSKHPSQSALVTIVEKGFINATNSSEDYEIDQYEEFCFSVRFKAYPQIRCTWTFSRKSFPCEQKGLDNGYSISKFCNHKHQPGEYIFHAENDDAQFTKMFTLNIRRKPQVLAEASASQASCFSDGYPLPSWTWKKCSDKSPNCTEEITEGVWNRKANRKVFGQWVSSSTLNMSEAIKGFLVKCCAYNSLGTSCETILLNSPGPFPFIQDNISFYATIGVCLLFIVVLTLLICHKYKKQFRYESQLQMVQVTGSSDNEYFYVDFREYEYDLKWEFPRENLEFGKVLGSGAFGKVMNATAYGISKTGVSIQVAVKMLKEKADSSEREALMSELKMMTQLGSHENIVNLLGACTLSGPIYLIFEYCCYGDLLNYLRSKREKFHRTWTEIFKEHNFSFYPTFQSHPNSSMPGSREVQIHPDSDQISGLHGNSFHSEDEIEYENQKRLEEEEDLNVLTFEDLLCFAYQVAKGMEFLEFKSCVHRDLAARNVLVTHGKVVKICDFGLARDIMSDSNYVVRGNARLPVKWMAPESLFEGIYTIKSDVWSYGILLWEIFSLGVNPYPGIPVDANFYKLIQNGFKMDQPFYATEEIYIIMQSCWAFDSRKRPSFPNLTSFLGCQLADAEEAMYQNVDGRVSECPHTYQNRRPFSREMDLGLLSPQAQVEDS
readout-kind: IC50 (nM)
Numeric answer only, unit nM assumed.

Inquiry: Given "CONC(=O)c1cn(-c2ccc3c(c2)CCC3)c2nc(Nc3ccc(CCN4CCN(C)CC4)cc3)ncc2c1=O" , state its recorded IC50.
Reply text: 36

Inquiry: Report IC50 for "CONC(=O)c1cn(-c2ccc3c(c2)CCC3)c2nc(Nc3ccc(C4CCN(C)CC4)cc3)ncc2c1=O" please.
Reply text: 6

Inquiry: Fill in: IC50 of "CN1CCN(CCc2ccc(Nc3ncc4c(=O)c(C(N)=O)cn(-c5ccc6c(c5)CCC6)c4n3)cc2)CC1" is ___
Reply text: 1

---

test: Half life in Sprague-Dawley rat at 10 mg/kg, po; type: ADME, organism-based; design: dose 10 mg/kg, route oral; settings: in vivo
readout-kind: half-life (h)
Note: unit h is implicit; provide only the numeric part.

- smi: "CONC(=O)c1cn(-c2ccc3c(c2)CCC3)c2nc(Nc3ccc(CCN4CCNC(=O)C4)cc3)ncc2c1=O"
  readout-kind: "half-life"
  value-reported: 9.7
- smi: "CONC(=O)c1cn(-c2ccc3c(c2)CCC3)c2nc(Nc3ccc(C4CCN(C)CC4)cc3)ncc2c1=O"
  readout-kind: "half-life"
  value-reported: 6.9
- smi: "CCc1ccc(-n2cc(C(=O)NOC)c(=O)c3cnc(Nc4ccc(C5CCN(C)CC5)cc4)nc32)cc1"
  readout-kind: "half-life"
  value-reported: 8.1
- smi: "CNC(=O)c1cn(-c2ccc3c(c2)CCC3)c2nc(Nc3ccc(CCN4CCOCC4)cc3)ncc2c1=O"
  readout-kind: "half-life"
  value-reported: 1.8

Note: attention shifts to another entry.
Inquiry: half-life lookup needed for "CONC(=O)c1cn(-c2ccc3c(c2)CCC3)c2nc(Nc3ccc(CCN4CCN(C)CC4)cc3)ncc2c1=O" , thanks.
Reply text: 6.5

---

assay: Oral bioavailability in Sprague-Dawley rat at 10 mg/kg; assay type: ADME, organism-based; settings: in vivo
readout-kind: bioavailability (%)
# unit: % | format: bare number

Guide cases for bioavailability, answers given:
- compound: "CN1CCN(c2ccc(Nc3ncc4c(=O)c(C(N)=O)cn(-c5ccc6c(c5)CCC6)c4n3)cc2)CC1"
  bioavailability [%]: 0
- compound: "CONC(=O)c1cn(-c2ccc3c(c2)CCC3)c2nc(Nc3ccc(CCN4CCN(C)CC4)cc3)ncc2c1=O"
  bioavailability [%]: 57
- compound: "CNC(=O)c1cn(-c2ccc3c(c2)CCC3)c2nc(Nc3ccc(CCN4CCOCC4)cc3)ncc2c1=O"
  bioavailability [%]: 4
- compound: "CCc1ccc(-n2cc(C(=O)NOC)c(=O)c3cnc(Nc4ccc(C5CCN(C)CC5)cc4)nc32)cc1"
  bioavailability [%]: 103
- compound: "CONC(=O)c1cn(-c2ccc3c(c2)CCC3)c2nc(Nc3ccc(C4CCN(CC(=O)O)CC4)cc3)ncc2c1=O"
  bioavailability [%]: 0
- compound: "CCN1CCCC(O)(c2cccc(Nc3ncc4c(=O)c(C(=O)NOC)cn(-c5ccc6c(c5)CCC6)c4n3)c2)C1 (stereo not given)"
  bioavailability [%]: 28
- compound: "CONC(=O)c1cn(-c2ccc3c(c2)CCC3)c2nc(Nc3ccc(C4CCN(CCO)CC4)cc3)ncc2c1=O"
  bioavailability [%]: 8
- compound: "CN1CCN(CCc2ccc(Nc3ncc4c(=O)c(C(N)=O)cn(-c5ccc6c(c5)CCC6)c4n3)cc2)CC1"
  bioavailability [%]: 0

Inquiry: Field request: bioavailability | item: "CONC(=O)c1cn(-c2ccc3c(c2)CCC3)c2nc(Nc3ccc(CCN4CCNC(=O)C4)cc3)ncc2c1=O"
Reply text: 3

Inquiry: Any idea what its bioavailability is? The compound is "CONC(=O)c1cn(-c2ccc3c(c2)CCC3)c2nc(Nc3ccc(C4CCN(C)CC4)cc3)ncc2c1=O"
Reply text: 100
